Molecular target: T1, Human syndecan-1 (CD138) on the cell surface (human, UniProt P18827 23-310)
T1 construct: Endogenous on H929, KMS-11 and RT112/84 cells or transfected into Expi293 cells; also called human CD138; hCD138
T1 sequence: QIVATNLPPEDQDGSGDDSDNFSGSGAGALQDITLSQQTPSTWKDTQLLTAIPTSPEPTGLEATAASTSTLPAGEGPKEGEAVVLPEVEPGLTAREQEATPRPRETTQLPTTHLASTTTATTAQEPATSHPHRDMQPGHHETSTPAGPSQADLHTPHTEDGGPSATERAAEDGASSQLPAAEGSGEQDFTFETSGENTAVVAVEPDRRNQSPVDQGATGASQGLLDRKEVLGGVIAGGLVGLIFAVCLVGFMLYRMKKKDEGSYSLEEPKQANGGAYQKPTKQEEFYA
Assay: FACS on RT-112 cells, four parameter fit
outcome_measure: EC50 (nM)

[[record]]
binder = "F6 f1ka-rep (antibody, V domains shown, Humanized F12P16F6 expressed as whole antibody with human constant regions (kappa light chain)) VH: QVQLQQSGAEVVKPGASVKLSCKASGYTFTSYYLYWVKKAPGQGLDWIGEIYPRSGGTNINEKFLSRVTLTADTSTSTAYMDLSSLTSEDTAVYYCTRSLLYWGQGTTLTVSS VL: DVVMTQTPLSLSVTPGQPASISCKSSQSLLASDGKTYLNWLLQRPGQSPKRLIYLVSKLDSGVPNRFSGSGSGTDFTLQISRVEAEDVGLYYCMQGAHFPFTFGGGTKVEIKR"
recorded_value = 1.39

[[record]]
binder = "F6 akf-rep (antibody, V domains shown, Humanized F12P16F6 expressed as whole antibody with human constant regions (kappa light chain)) VH: QVQLVQSGAEVVKPGASVKLSCKASGYTFTSYYLYWVKKAPGQGLDWIGEIYPRSGGTNYAEKFQGRVTLTADTSTSTAYLELSSLTSEDTAVYYCTRSLLYWGQGTTLTVSS VL: DVVMTQSPLSLSVTLGQPASISCKSSQSLLASDGKTYLNWLQQRPGQSPRRLIYLVSKLDSGVPNRFSGSGSGTDFTLQISRVEAEDVGLYYCWQGAHFPFTFGSGTKLEIKR"
recorded_value = 1.88

